experimental-target: human AspH (His6-AspH315–758) (Homo sapiens, UniProt Q12797)
Construct: N-Terminally His6-tagged human AspH315–758 (His6-AspH315–758) was produced in Escherichia coli BL21 (DE3) cells; made in house; host or cells: Escherichia coli BL21 (DE3), pET-28a(+) vector
Sequence (Q12797 315-758): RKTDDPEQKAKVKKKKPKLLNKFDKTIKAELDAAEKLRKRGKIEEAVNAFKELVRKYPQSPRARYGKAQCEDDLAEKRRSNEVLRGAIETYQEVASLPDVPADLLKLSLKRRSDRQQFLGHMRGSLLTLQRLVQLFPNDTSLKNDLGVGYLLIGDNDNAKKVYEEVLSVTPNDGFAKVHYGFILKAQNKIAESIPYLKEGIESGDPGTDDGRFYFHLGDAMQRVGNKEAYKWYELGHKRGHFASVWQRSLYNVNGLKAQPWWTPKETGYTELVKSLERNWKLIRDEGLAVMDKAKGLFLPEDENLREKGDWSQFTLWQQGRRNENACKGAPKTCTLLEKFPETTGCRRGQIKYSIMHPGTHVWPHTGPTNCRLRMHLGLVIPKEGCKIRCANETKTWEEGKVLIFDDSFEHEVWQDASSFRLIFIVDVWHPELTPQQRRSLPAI
protocol: SPE-MS AspH inhibition assay (hFX-CP101-119 substrate hydroxylation)
Format: biochemical
run-conditions: AspH-inhibitor screening, Plate 1-duplicate, substrate conversion

{"compound": "CO[C@H]1C[C@@H]2CC[C@@H](C)[C@@](O)(O2)C(=O)C(=O)N2CCCC[C@H]2C(=O)O[C@H]([C@H](C)C[C@@H]2CC[C@@H](O)[C@H](OC)C2)CC(=O)[C@H](C)/C=C(\\C)[C@@H](O)[C@@H](OC)C(=O)[C@H](C)C[C@H](C)/C=C/C=C/C=C/1C [Rapamycin (sirolimus)]", "experimental-target": "human AspH (His6-AspH315–758) (Homo sapiens, UniProt Q12797)", "Plate 1-duplicate (% conversion) (%)": 65.13}
{"compound": "Cc1ccc(Nc2nccc(N(C)c3ccc4c(C)n(C)nc4c3)n2)cc1S(N)(=O)=O", "experimental-target": "human AspH (His6-AspH315–758) (Homo sapiens, UniProt Q12797)", "Plate 1-duplicate (% conversion) (%)": 62.71}
{"compound": "O=C1NC(=O)[C@@H](c2cn3c4c(cccc24)CCC3)[C@@H]1c1c[nH]c2ccccc12 [ARQ 197_Tivantinib]", "experimental-target": "human AspH (His6-AspH315–758) (Homo sapiens, UniProt Q12797)", "Plate 1-duplicate (% conversion) (%)": 58.79}
